Can you tell me phosphorylation enrichment for the items I'm about to list?
target system: Hck (UniProt P08631)
Sequence (P08631 whole entry, looked up): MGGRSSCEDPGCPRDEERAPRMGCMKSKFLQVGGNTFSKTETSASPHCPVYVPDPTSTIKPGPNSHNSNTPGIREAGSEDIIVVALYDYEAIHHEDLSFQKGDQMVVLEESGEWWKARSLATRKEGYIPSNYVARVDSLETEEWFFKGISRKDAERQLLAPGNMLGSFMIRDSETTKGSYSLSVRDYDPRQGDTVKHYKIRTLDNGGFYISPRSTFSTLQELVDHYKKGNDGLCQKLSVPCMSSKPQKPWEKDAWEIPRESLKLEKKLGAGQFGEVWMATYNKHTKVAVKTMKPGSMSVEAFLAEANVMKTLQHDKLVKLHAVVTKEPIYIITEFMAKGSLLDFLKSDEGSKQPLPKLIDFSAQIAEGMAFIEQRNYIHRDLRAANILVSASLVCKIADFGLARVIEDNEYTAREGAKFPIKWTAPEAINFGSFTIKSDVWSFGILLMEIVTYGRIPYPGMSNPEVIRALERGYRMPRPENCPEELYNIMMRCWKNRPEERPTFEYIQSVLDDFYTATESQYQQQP
experiment notes: phosphorylation enrichment, bacterial display (enrichment ratio); higher = better substrate or ligand; peptides without Tyr show the background;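 further: 11-residue human phosphosite peptides and single-mutation variants displayed on the E. coli surface, counted by deep sequencing, each peptide's frequency after selection divided by its frequency in the unselected input library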;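 further: frequency after pTyr selection over input frequency; kinase dosed for 20-30% of maximal phosphorylation in three min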
Kindly provide the number alone.

Inquiry: I would be grateful if you could share the reported phosphorylation enrichment for SVVAPYEPPEV [TP53_Y220_V218A] .
Reply text: 0.624

Inquiry: Consider next the sequence NIWDSYTTNKV [GNB1_Y85_I80N] in the same way.
Reply text: 0.497

Inquiry: Consider next the sequence LFVDVYGPSVP [NUBPL_Y109_D105Y_YF] in the same way.
Reply text: 1.5

Inquiry: Consider next the sequence KLIETYFSKNF [PLP1_Y50_YF] in the same way.
Reply text: 0.519

Inquiry: Consider next the sequence VLTSKYHGGGG [HBA1_Y141_R142H] in the same way.
Reply text: 0.391

Inquiry: Consider next the sequence KNRDVYSSDFF [USP24_Y2134_YF] in the same way.
Reply text: 0.832

Inquiry: Consider next the sequence QGIPRYHSQSP [FOXF1_Y331] in the same way.
Reply text: 1.02

Inquiry: Consider next the sequence RDHFGYRQSVT [CD55_Y245_YF] in the same way.
Reply text: 0.489

Inquiry: Consider next the sequence EQKKYYNAVKK [SCN5A_Y1495_M1498V] in the same way.
Reply text: 0.352

Inquiry: Consider next the sequence CTLSVYRQLHN [LUZP1_Y1036] in the same way.
Reply text: 0.456

Inquiry: Consider next the sequence RDMNAYISPSP [MMAA_Y207_R209S] in the same way.
Reply text: 0.323

Inquiry: Consider next the sequence HDHYGYRQSVT [CD55_Y245_R240H] in the same way.
Reply text: 0.969

Inquiry: Consider next the sequence VSYDEYRYRSV [CFTR_Y515] in the same way.
Reply text: 0.586

====

target system: MERTK (UniProt Q12866)
Sequence (Q12866 whole entry, looked up): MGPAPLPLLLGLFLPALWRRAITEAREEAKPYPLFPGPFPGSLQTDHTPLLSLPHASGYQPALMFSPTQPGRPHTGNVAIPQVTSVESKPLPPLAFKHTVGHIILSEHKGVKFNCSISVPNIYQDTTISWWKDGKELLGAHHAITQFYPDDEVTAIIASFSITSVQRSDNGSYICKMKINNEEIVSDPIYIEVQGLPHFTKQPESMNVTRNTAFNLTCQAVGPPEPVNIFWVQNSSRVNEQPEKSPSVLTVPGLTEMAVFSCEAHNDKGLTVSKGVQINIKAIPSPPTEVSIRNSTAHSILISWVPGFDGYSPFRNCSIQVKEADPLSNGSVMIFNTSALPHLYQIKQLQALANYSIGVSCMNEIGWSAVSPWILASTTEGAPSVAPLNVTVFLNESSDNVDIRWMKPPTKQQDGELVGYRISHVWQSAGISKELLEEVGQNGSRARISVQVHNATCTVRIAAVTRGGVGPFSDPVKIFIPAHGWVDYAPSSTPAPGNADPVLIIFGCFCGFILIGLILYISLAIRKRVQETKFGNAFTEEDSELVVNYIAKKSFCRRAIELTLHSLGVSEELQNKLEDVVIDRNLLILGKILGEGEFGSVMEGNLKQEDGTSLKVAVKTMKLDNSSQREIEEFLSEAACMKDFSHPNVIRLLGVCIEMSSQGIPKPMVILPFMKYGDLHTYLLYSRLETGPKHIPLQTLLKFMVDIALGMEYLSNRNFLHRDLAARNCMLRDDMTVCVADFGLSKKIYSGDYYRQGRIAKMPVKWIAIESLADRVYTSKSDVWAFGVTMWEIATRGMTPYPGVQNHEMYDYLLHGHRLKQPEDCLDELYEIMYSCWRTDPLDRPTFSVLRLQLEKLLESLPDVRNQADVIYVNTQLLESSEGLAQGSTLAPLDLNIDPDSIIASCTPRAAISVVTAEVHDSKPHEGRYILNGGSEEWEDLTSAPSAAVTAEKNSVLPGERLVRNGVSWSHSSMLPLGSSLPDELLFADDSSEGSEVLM
experiment notes: phosphorylation enrichment, bacterial display (enrichment ratio); higher = better substrate or ligand; peptides without Tyr show the background
Can you tell me phosphorylation enrichment for the items I'm about to list?
Kindly provide the number alone.

Inquiry: I would be grateful if you could share the reported phosphorylation enrichment for CRVEPYGENFN [APOA4_Y310_R305C] .
Reply text: 0.583

Inquiry: Consider next the sequence RRIFSYRGHLW [VHL_Y112_H110Y_YF] in the same way.
Reply text: 0.6

Inquiry: Consider next the sequence SWKRRYFLLWA [APBB1IP_Y331_R335W] in the same way.
Reply text: 0.59

====

Tested on: Fer (mouse)
experiment notes: phosphorylation enrichment, bacterial display (enrichment ratio); higher = better substrate or ligand; peptides without Tyr show the background
Can you tell me phosphorylation enrichment for the items I'm about to list?
Kindly provide the number alone.

Inquiry: I would be grateful if you could share the reported phosphorylation enrichment for IGMFSYVMLAS [GGCX_Y301] .
Reply text: 0.562

Inquiry: Consider next the sequence HHTDEYEYDEL [TGM1_Y134] in the same way.
Reply text: 0.958

Inquiry: Consider next the sequence SDFFAYSPVQE [H6PD_Y449_R453Q_YF] in the same way.
Reply text: 1.13

Inquiry: Consider next the sequence DWRQEYVLNES [TGM1_Y267] in the same way.
Reply text: 0.558

Inquiry: Consider next the sequence SLMGCYNLTFM [HS6ST3_Y323_V320M] in the same way.
Reply text: 1.35

Inquiry: Consider next the sequence CTTIHYNYMSN [TP53_Y234_C238S] in the same way.
Reply text: 0.664

Inquiry: Consider next the sequence AFEQQYSPIPR [NOX1_Y373] in the same way.
Reply text: 0.451

Inquiry: Consider next the sequence GRLGEYDIDEV [SMS_Y134_V132G] in the same way.
Reply text: 0.688

Inquiry: Consider next the sequence ECIEFYELDKK [PMM2_Y145_R141C] in the same way.
Reply text: 0.589

Inquiry: Consider next the sequence KDHPDYKYQRR [SOX10_Y171_P175R] in the same way.
Reply text: 0.303

Inquiry: Consider next the sequence REGAKYVSHGT [ASS1_Y113_A118T] in the same way.
Reply text: 0.375

Inquiry: Consider next the sequence PIPAAYNRFDQ [CDC73_Y290_YF] in the same way.
Reply text: 0.485

Data origin: the supplement of paper PMC10065799
